Origin of measurements: ChEMBL document CHEMBL3988442

Examples of molecules with documented Percent Effect follow.
assay target: Protein translocase subunit SecA (Escherichia coli (strain K12))
method description: Assay to Identify E. coli SecA ATPase Inhibitors
Format: functional
Set-up: scale not given: direction of the effect not stated beside the values
condition parameters: 30 µM
Measured potencies and affinities stand elsewhere.
// units = %; emit number, no label

Here are 2 molecules together with their reported answers.
• Cc1ncc(CNCC2CCCN2c2cccnn2)s1 (centres undefined) = 0.235
• Cn1cc(CN2CCc3nc(-c4ccccn4)nc(O)c3C2)cn1 = -7.26

Kindly consider the entry below.
Request body: readout Percent Effect, system Protein translocase subunit SecA (Escherichia coli (strain K12)), query "Fc1cnc(N2CCn3cc(CNc4ccccn4)nc3C2)nc1" . Return the value. 0.222

====

assay target: Tyrosyl-tRNA synthetase, putative (Trypanosoma cruzi (strain CL Brener))
method description: Trypanosoma cruzi tyrosyl tRNA synthetase (TcYRS) _High Tyrosine SOP; note: in the data most compounds retested in dose-response had high values
Format: functional
Parameters: scale not given: direction of the effect not stated beside the values
condition parameters: 30 µM
observable: Percent Effect (%)
Just the number please, in %, no unit attached.

* CS(=O)(=O)N[C@@H]1CCO[C@]2(CCN(C(=O)C3=CCCC3)C2)C1 | 5.41
* COc1ccc(C(=O)N2CCC(Nc3ccc(C)nn3)CC2)c(F)c1 | 7.29
* Cc1ccc(NC2CCN(C(=O)c3cc[nH]n3)CC2)nn1 | -0.49

# Percent Effect lookup, item "COc1ccccc1CNC(=O)Cn1ncc2c1c(C)nn2C" 5.29

I have this compound here, "CN1CCN(C2CCN(CCOc3ccc(F)cc3)CC2)C1=O" , and I need its recorded Percent Effect. 0

Reported Percent Effect for NCC(c1ccccc1)N1CCc2sccc2C1 (centres undefined) : what is it? 8.51

What value of measured Percent Effect is listed for CC(Cn1cccn1)NCc1nc(-c2cccc(Cl)c2)no1 (centres undefined) ? 3.45

Entry under review: Cc1ccc(C(=O)N2CCCC2c2nnc3n2CCCCC3)o1 (centres undefined) . Reported Percent Effect? 2.1

// query Percent Effect value for entry Cc1cnn(CC2CN(c3ncnc4ccsc34)CCO2)c1 (centres undefined) 11.9

====

Consider the following compounds and their measured Percent Effect readings.
assay target: Ubiquitin-activating enzyme e1, putative (Leishmania donovani (strain BPK282A1))
method description: Leishmania donovani Ubiquitin Activating Enzyme (LdE1)
Format: functional
Set-up: scale not given: direction of the effect not stated beside the values
condition parameters: 30 µM
Potency and affinity values are given separately.
Write the number in % without appending the unit.

* CC(=O)NCCNC(=O)CN1CCN(Cc2nccn2C)C(C)C1 (stereo unspecified) | 0
* CCC(NC(=O)C1CCN(S(C)(=O)=O)CC1)c1ccc(OC)c(C)c1 (stereo unspecified) | 2.6
* O=C(NCc1ccccc1)N1CCC2(CC(=O)N(c3ccsc3)C2)C1 (stereo unspecified) | 0

Which Percent Effect is reported for this compound? "Cc1c(I)cccc1C(=O)NCC1(CO)CC1" 13.5

Item under review: "Cc1c[nH]c(CN(C)c2nc(C3CCCC3)nc3c2cnn3C)n1" . Reported Percent Effect? 1.39

Which Percent Effect is listed for "Cc1ccc(C(=O)NC2CCN(Cc3noc(CC(C)C)n3)CC2)s1" ? 2.6

====

Listed below: Percent Effect values for each entry.
assay target: Tyrosyl-tRNA synthetase, putative (Trypanosoma cruzi (strain CL Brener)) (UniProt Q4DSP6)
Sequence (Q4DSP6 as listed by the source): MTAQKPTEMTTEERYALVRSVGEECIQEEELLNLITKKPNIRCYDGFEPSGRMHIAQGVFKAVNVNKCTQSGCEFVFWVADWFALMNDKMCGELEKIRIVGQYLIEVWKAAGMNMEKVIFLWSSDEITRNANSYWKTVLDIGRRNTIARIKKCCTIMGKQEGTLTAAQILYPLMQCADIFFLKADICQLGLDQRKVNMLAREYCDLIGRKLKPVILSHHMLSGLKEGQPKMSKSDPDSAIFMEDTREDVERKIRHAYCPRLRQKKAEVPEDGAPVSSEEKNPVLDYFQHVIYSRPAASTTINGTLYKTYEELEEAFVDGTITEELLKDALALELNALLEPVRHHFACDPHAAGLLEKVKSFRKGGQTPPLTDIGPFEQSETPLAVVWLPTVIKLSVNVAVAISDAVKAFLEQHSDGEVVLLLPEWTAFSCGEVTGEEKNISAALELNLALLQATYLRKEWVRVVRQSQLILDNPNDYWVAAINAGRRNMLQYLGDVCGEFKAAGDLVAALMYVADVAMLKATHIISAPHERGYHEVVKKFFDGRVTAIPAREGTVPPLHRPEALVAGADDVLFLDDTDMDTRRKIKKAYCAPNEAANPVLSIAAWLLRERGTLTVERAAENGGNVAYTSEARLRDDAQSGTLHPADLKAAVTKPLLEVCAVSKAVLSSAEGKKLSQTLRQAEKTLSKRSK
method description: Trypanosoma cruzi tyrosyl tRNA synthetase (TcYRS) SOP
Format: functional
Design: scale not given: direction of the effect not stated beside the values
condition parameters: 30 µM
Enter your answer as a number in %; do not include the unit.

As a guide, the following entries are already answered.
- COc1ccc(CCN2CCc3c(nc(C4CC4)n3C)C2)cc1: 2.44
- Cn1nccc1C(=O)N1CCOC(Cc2cccc(C(F)(F)F)c2)C1 (configuration not stated): 3.7
- O=C(Nc1cccc(CN2CCOC2=O)c1)N1CCSCC1: 15.4
- COc1ccc2nnc(CCCC(=O)NCCC3=CCCCC3)n2n1: 17.9
- Cc1nn(C)c(N(C)C)c1CNCC(O)COc1ccc(F)cc1 (configuration not stated): 12.5
- CN1CC(=O)N(c2cccc(F)c2)CC12CCNC2 (configuration not stated): 5.13
- N#Cc1cn(CC(=O)NC2CC2)c2ccc(Br)cc2c1=O: -3.7
- CCNC(=O)N1CCC2(C1)c1ccccc1S(=O)(=O)N2CCC(C)C (configuration not stated): 0

What value of Percent Effect has been reported for the following molecule? "CN1CCN(C[C@@H]2OC[C@H]3CN(Cc4cccc(F)c4)CC[C@H]32)CC1" 2.5

Reported Percent Effect, molecule "CN(C)C(=O)CN1C[C@@H]2CC[C@H](C1)N(Cc1cccc(Cl)c1Cl)C2" : ____ 25.9

Tell me the measured Percent Effect of COc1cc(CNC2CCCc3c2cnn3C)cc(OC)c1 (configuration not stated) , please. 3.7

State the recorded Percent Effect for this entry: Cc1nn(C)c(C)c1C1CCCN1CC(=O)NC(C1CC1)C1CC1 (configuration not stated) 11.1
